protocol.text: clinical
reported.conditions: human, in vivo, 27 mg/m2, V ss
measure.name: Vd (L)
Dear colleague, please return just the value in L, with no unit written.

Notebook: CC(C)C[C@H](NC(=O)[C@H](CCc1ccccc1)NC(=O)CN1CCOCC1)C(=O)N[C@@H](Cc1ccccc1)C(=O)N[C@@H](CC(C)C)C(=O)[C@@]1(C)CO1 , Vd read as 11.1

* * *

protocol.text: clinical
reported.conditions: human, in vivo, 20 mg/m2, Cmax
measure.name: Cmax (ng/mL)
Dear colleague, please return just the value in ng/mL, with no unit written.

Notebook: CC(C)C[C@H](NC(=O)[C@H](CCc1ccccc1)NC(=O)CN1CCOCC1)C(=O)N[C@@H](Cc1ccccc1)C(=O)N[C@@H](CC(C)C)C(=O)[C@@]1(C)CO1 , Cmax read as 2390
